Target: Neurogenic locus notch homolog protein 3 (Homo sapiens) (UniProt Q9UM47)
Sequence (Q9UM47 whole entry, looked up): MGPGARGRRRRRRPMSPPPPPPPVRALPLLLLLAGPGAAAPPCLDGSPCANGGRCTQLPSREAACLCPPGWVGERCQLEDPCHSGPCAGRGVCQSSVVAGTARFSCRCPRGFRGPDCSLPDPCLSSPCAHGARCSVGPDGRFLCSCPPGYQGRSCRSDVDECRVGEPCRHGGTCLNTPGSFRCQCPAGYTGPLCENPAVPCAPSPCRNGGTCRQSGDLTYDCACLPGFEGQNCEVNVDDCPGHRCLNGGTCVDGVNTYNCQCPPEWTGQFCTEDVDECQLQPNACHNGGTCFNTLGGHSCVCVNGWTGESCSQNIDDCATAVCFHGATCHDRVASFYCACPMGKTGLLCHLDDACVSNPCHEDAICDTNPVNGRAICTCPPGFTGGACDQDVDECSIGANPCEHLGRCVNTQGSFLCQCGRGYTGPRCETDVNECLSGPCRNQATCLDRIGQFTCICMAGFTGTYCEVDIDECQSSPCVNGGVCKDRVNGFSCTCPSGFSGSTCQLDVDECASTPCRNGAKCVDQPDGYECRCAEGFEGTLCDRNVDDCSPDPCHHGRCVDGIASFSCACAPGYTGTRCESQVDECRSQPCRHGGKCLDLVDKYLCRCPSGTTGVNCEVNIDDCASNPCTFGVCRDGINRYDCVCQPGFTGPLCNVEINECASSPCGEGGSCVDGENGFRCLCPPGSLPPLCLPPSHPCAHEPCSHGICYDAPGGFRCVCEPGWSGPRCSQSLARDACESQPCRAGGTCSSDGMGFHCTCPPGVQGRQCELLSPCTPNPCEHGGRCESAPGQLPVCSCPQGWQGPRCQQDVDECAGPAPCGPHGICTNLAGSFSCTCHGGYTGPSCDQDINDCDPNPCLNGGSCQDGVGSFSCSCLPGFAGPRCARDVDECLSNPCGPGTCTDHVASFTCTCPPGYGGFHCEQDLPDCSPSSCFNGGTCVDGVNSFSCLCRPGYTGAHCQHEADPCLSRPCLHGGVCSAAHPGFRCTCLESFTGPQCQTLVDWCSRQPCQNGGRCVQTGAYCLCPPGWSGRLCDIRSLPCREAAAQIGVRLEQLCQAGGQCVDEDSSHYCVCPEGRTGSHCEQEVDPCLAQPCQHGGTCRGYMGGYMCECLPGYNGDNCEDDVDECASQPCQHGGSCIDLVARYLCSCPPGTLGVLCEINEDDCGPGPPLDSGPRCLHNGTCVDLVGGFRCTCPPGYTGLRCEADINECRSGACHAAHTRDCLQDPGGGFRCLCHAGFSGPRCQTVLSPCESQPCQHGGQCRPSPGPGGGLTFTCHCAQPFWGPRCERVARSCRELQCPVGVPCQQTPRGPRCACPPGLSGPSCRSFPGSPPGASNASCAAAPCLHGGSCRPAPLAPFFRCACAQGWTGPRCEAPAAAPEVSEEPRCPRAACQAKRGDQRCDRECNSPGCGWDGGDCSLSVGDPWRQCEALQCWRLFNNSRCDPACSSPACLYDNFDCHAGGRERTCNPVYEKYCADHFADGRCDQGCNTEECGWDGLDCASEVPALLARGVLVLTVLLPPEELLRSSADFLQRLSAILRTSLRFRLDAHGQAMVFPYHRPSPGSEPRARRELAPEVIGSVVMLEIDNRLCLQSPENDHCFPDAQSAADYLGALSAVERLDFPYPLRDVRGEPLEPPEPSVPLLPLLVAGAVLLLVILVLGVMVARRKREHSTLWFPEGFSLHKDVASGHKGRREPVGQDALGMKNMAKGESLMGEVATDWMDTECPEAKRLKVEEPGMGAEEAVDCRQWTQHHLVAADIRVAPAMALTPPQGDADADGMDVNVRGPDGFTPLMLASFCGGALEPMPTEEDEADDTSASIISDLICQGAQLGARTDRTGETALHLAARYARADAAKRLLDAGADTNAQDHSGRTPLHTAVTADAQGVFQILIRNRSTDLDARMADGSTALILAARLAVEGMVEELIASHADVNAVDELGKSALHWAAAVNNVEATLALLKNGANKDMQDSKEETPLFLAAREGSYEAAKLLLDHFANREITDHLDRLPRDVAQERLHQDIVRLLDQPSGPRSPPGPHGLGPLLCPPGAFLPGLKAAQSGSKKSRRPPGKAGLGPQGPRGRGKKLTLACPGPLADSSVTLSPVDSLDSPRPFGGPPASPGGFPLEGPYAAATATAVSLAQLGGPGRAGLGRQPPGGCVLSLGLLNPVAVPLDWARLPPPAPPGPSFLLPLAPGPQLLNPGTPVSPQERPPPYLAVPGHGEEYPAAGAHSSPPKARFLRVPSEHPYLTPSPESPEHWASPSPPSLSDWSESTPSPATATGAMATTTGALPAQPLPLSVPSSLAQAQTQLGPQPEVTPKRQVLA
Test: NOTCH3 binders on small-molecule microarray, primary screen, biochemical, 635/667 nm fluorescence (AID 1096)
Conditions: NOTCH3 binding, 635 nm fluorescence, higher = more signal
Please go through the items and note down their composite z-score.

Query: composite z-score; subject: "CCCCCCc1nc(Cc2cc(OC)c(OC)c(OC)c2)c(C)c2c1[Si](C(C)C)(C(C)C)OC2"
-0.143

Query: composite z-score; subject: "COCCOC(=O)N1C(=O)[C@@]2(c3cc(C#CCCO)ccc31)[C@H](C(=O)N1CCN(c3ncccn3)CC1)[C@H]1C(=O)O[C@H](c3ccccc3)[C@H](c3ccccc3)N1[C@@H]2c1ccc(OCCO)cc1"
1.05

Query: composite z-score; subject: O=C1C2C=CC(C(O)C(c3ccccc3)c3ccccc3)N(Nc3ccccc3F)C2C(=O)N1c1ccccc1 (stereo unspecified)
1.02

Query: composite z-score; subject: "O=C(NC1CC1)[C@@H]1c2ccccc2C(=O)N(C2CCCCC2)[C@H]1c1ccc(CO)cc1"
0.25

Query: composite z-score; subject: "O=C1O[C@H](c2ccccc2)[C@H](c2ccccc2)N2[C@H]1[C@@H](C(=O)O)[C@]1(C(=O)Nc3ccccc31)[C@H]2c1ccc(OCCO)cc1"
0.33

Query: composite z-score; subject: "COCCOC(=O)N1C(=O)[C@@]2(c3cc(C#CCC(C(=O)OC)C(=O)OC)ccc31)[C@H](c1ccc(O)cc1)N1[C@H](c3ccccc3)[C@H](c3ccccc3)OC(=O)[C@H]1[C@@H]2C(=O)N1CCc2cc(OC)c(OC)cc2C1"
0.8

----------
Test: binders of probe aFST on microarray, primary screen, stem cell growth factor project, biochemical, small-molecule microarray, fluorescence 635/667 (AID 1086);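 note: score merges 667 nm fluorescence with signal-to-noise of each printed compound spot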
Details: higher = more signal
Please go through the items and note down their composite z-score.
Format: numeric value only, no unit, no commentary.

Query: composite z-score; subject: "COc1ccc(CCNC(=O)[C@@]2(C)c3ccccc3C(=O)N(Cc3ccc(OC(F)(F)F)cc3)[C@H]2c2ccc(CO)cc2)cc1"
0.122

Query: composite z-score; subject: "C[N+](C)(C)CCCC[C@@H]1NC(=O)[C@H]2C[C@@H](C(=O)O)[C@@H](c3ccc(O)cc3)N2C1=O"
-0.166

Query: composite z-score; subject: "COc1ccc([Si](C)(C)[C@H]2[C@H](CC(=O)N3CCC[C@H]3CO)O[C@@]3(C(=O)N(C)c4ccccc43)[C@@H]2C)cc1"
0.324

Query: composite z-score; subject: "COc1cc2c(cc1OC)CN(C(=O)[C@@H]1[C@H]3C(=O)O[C@H](c4ccccc4)[C@H](c4ccccc4)N3[C@H](c3ccc(O)cc3)[C@@]13C(=O)Nc1ccc(C#CC4=CCCCC4)cc13)CC2"
0.588

Query: composite z-score; subject: "COCCOC(=O)N1C(=O)[C@@]2(c3cc(C#CCCO)ccc31)[C@H](c1ccc(O)cc1)N1[C@H](c3ccccc3)[C@H](c3ccccc3)OC(=O)[C@H]1[C@@H]2C(=O)NC[C@H](O)c1ccccc1"
0.0962

Query: composite z-score; subject: "Cc1cccc([C@H]2C[C@H]3C(Br)=C[C@@]2(CO)C(=O)[C@]32CO2)c1"
0.275

Query: composite z-score; subject: "COc1ccc([Si](C)(C)[C@H]2[C@H](CC(=O)N(CCO)Cc3ccccc3)O[C@@]3(C(=O)N(Cc4cccc(N5CCCCC5=O)c4)c4ccccc43)[C@@H]2C)cc1"
0.0417

Query: composite z-score; subject: "CCOC(=O)C[C@H]1[C@H](OC(=O)c2ccc(-c3ccccc3)cc2)[C@@H](NC(=O)c2ccc(-c3ccccc3)cc2)c2cc(OCCCO)ccc2N1C(=O)c1ccccc1"
0.627

Query: composite z-score; subject: "O=C(NCC(F)(F)F)[C@@H]1c2ccccc2C(=O)N(Cc2cc(C(F)(F)F)cc(C(F)(F)F)c2)[C@H]1c1ccc(CO)cc1"
-0.192

Query: composite z-score; subject: "Cc1ccc(S[C@]2(C(=O)NC3CC3)CC(=O)N(C3Cc4ccccc4C3)[C@@H]2c2ccc(CO)cc2I)cc1"
-0.228

Query: composite z-score; subject: "COCCOC(=O)N1C(=O)[C@@]2(c3cc(C#CCC(C(=O)OC)C(=O)OC)ccc31)[C@H](c1ccc(O)cc1)N1[C@H](c3ccccc3)[C@H](c3ccccc3)OC(=O)[C@H]1[C@@H]2C(=O)N1CCc2cc(OC)c(OC)cc2C1"
0.186

Query: composite z-score; subject: "[N-]=[N+]=NCc1ccccc1C[C@]1(C(=O)N2CCCCC2)COC(c2ccc(OCCCO)cc2)=N1"
1.68

Query: composite z-score; subject: [N-]=[N+]=Nc1ccccc1C[C@@]1(C(=O)NCC(O)CO)N=C(c2ccc(OCCCO)cc2)O[C@@H]1c1ccccc1N=[N+]=[N-] (stereo partly drawn)
0.941
